Source: paper PMC3154745

# target: T1, HP1a-CSD W200A (residues 131-206) (D. melanogaster, UniProt P05205 131-206, W200A)
# T1 sequence (looked up): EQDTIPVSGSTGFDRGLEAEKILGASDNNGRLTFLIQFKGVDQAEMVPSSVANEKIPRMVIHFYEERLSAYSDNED
# test: fluorescence polarisation
No end group written: not given here. fluorescein = fluorescein group at the N-terminus
metric-name: Kd

1. fluorescein-TSRGSGDPRVKVFRGSSSGDY [PIWI peptide, N-terminal fluorescein]: > 2000 µM
2. fluorescein-QNISPRKLSVKINRRPYNKWLR [HP2 peptide Cys to Ser mutant (LSVKI), N-terminal fluorescein]: > 500 µM
